Experiment: alamar Blue viability assay
Assay type: cell-based, human
Settings: human, THP-1 cells (monocytic leukemia); THP1, 50 μM, 24 hours, vs DMSO
Endpoint: viability at 24 h, 50 µM (%)
Just the number in %, nothing appended.

# query: viability at 24 h, 50 µM of entry O=C1C=Cc2c(c(-c3ccccc3)cn2S(=O)(=O)c2cccc([N+](=O)[O-])c2)C1=O [Compound 24] 27

# query: viability at 24 h, 50 µM of entry O=C1C=Cc2c(c(-c3ccccc3)cn2S(=O)(=O)c2ccc([N+](=O)[O-])cc2)C1=O [Compound 23] 31

# query: viability at 24 h, 50 µM of entry O=C1C=Cc2c(c(-c3ccccc3)cn2S(=O)(=O)c2cccc(F)c2)C1=O [Compound 27] 32

# query: viability at 24 h, 50 µM of entry O=C1C=Cc2c(c(-c3ccccc3)cn2S(=O)(=O)c2ccc(F)cc2)C1=O [Compound 25] 35

# query: viability at 24 h, 50 µM of entry COc1ccc(-c2cn(S(=O)(=O)c3ccccc3)c3c2C(=O)C(=O)C=C3)cc1 [Compound 28] 46
